Cited source for all entries: PubChem BioAssay (EPA / NIEHS)

- Tested target: Myc proto-oncogene protein (Homo sapiens)
- Measurement protocol: ATG_Myc_CIS: Attagene CIS-FACTORIAL HepG2 Assay for human Myelocytomatosis (Myc) Proto-Oncogene Transcription Factor (AID 2282990)
- Experimental conditions: HepG2, Attagene cis-reporter transcription factor activity; actives raise or lower the signal
Active and inactive are the calls of the source. The calls were made as follows: active = hit-call score of the fitted dose curve at least 0.9, where 1 is the maximum; inactive = score below 0.9.
Observation type: outcome

Completed entries (count: 4):
{"Compound": "Oc1c(Cl)cc(Cl)cc1Sc1cc(Cl)cc(Cl)c1O", "outcome": "inactive"}
{"Compound": "CCc1cccc(CC)c1N(COC)C(=O)CS(=O)(=O)O", "outcome": "inactive"}
{"Compound": "CN(C)c1ccc(C(=C2C=CC(=[N+](C)C)C=C2)c2ccccc2)cc1", "outcome": "inactive"}
{"Compound": "CC(C)(C)c1ccc(CCC=O)cc1", "outcome": "inactive"}

Find the recorded outcome belonging to CC(=O)Nc1ccc(S(N)(=O)=O)cc1 and report it.
inactive

What do you get for Cc1ccccc1C(OCCN(C)C)c1ccccc1 (stereo not drawn) ?
inactive

What do you get for CCCCCCCCC1CCC(=O)O1 (stereo not drawn) ?
inactive

What do you get for CC1=NN(c2ccccc2)C(=O)C1 ?
inactive

What do you get for CN(CCO)S(=O)(=O)C(F)(F)C(F)(F)C(F)(F)C(F)(F)C(F)(F)C(F)(F)C(F)(F)C(F)(F)F ?
inactive

What do you get for CC1CNCC(C)O1 (stereo not drawn) ?
inactive

What do you get for CN(C)CCOC(c1ccccc1)c1ccccc1 ?
inactive

What do you get for CCC(=O)C=Cc1ccc(OC)cc1 ?
inactive

* * *

- Tested target: Cellular tumor antigen p53 (Homo sapiens) (UniProt P04637)
- Sequence (P04637 whole entry, looked up): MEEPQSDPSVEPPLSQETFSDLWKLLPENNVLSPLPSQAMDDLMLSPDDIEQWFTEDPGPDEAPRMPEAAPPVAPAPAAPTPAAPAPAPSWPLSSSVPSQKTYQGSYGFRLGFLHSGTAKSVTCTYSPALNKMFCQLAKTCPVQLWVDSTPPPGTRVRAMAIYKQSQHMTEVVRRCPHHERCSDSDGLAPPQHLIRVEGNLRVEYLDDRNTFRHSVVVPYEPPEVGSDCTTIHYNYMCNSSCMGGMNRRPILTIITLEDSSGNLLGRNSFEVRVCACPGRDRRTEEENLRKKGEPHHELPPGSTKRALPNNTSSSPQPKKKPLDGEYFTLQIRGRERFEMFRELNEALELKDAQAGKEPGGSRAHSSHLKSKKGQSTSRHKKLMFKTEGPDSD
- Measurement protocol: ATG_p53_CIS: Attagene CIS-FACTORIAL HepG2 Assay for human p53 Transcription Factor (AID 2282994)
- Experimental conditions: HepG2 p53 cis-element reporter, Attagene mRNA; actives raise or lower the signal
Active and inactive are the calls of the source. The calls were made as follows: active = hit-call score of the fitted dose curve at least 0.9, where 1 is the maximum; inactive = score below 0.9.
Output constraint: value belongs to Yes for active, No for inactive

Worked cases, answers included:
{"Compound": "COCN(COC)c1nc(N(COC)COC)nc(N(COC)COC)n1", "Class label": "No"}
{"Compound": "O=P(O)(O)CCC(F)(F)C(F)(F)C(F)(F)C(F)(F)C(F)(F)C(F)(F)F", "Class label": "No"}

Outcome? C=CC(C)(CCC=C(C)C)OC(C)=O (configuration not stated)
No

What do you get for O=C(Nc1ccc(Cl)c(Cl)c1)c1cc(Cl)cc(Cl)c1O ?
Yes

What do you get for O=S(=O)(O)c1ccc2cc(O)ccc2c1 ?
No

What do you get for CCCCCCC(C)(C)C(=O)O ?
No

What do you get for Cc1cncc(C)c1 ?
No

What do you get for Cc1cc(C(=C2C=CC(=Nc3ccc(S(=O)(=O)O)cc3)C=C2)c2ccc(Nc3ccc(S(=O)(=O)O)cc3)cc2)cc(S(=O)(=O)O)c1N ?
No

What do you get for Brc1ccc(Oc2ccc(Br)cc2Br)cc1 ?
No

What do you get for O=C(O)CCC(F)(F)C(F)(F)C(F)(F)C(F)(F)C(F)(F)C(F)(F)F ?
No

What do you get for C=Cc1ccc(O)c(OC)c1 ?
No

What do you get for Cc1cccc2c1ccc1ccccc12 ?
No

* * *

- Read-out: Tumor necrosis factor (Homo sapiens)
- Measurement protocol: BSK_LPS_TNFa: BioMAP Diversity Plus: LPS Assay for Tumour Necrosis Factor alpha (TNFa) Biomarker Activity (AID 2283085)
- Experimental conditions: primary human HUVEC with PBMC; actives raise or lower the signal
Calls of active or inactive are those of the source. The calls were made as follows: active = hit-call score of the fitted dose curve at least 0.9, where 1 is the maximum; inactive = score below 0.9.
Output constraint: value belongs to active, inactive

Worked cases, answers included:
{"Compound": "CC1=NN(c2ccccc2)C(=O)C1", "Class label": "inactive"}
{"Compound": "Cc1[nH]nc2c1N=C(c1ccccc1Cl)c1cc([N+](=O)[O-])ccc1N2", "Class label": "active"}
{"Compound": "O=C1OC2(c3ccccc31)c1cc(I)c(O)c(I)c1Oc1c2cc(I)c(O)c1I", "Class label": "inactive"}
{"Compound": "CN(CCO)S(=O)(=O)C(F)(F)C(F)(F)C(F)(F)C(F)(F)C(F)(F)C(F)(F)C(F)(F)C(F)(F)F", "Class label": "inactive"}
{"Compound": "Clc1ccc(Nc2nnc(Cc3ccncc3)c3ccccc23)cc1", "Class label": "inactive"}

Outcome? O=C1NS(=O)(=O)c2ccccc21
inactive

What do you get for CCCCC(CC)C(=O)O (configuration not stated) ?
inactive
